Assay: Pharmacokinetics in male Sprague Dawley rats after intravenous and subcutaneous injection (Example 10)
Assay type: in vivo
Conditions: male, Sprague Dawley, plasma; iv, 1 μmol net peptide/kg, rat
Residues, ends and D or L forms follow the SMILES beside them. *: point of attachment. Stearoyl = CCCCCCCCCCCCCCCCCC(=O)*; Palmitoyl = CCCCCCCCCCCCCCCC(=O)*
# Tmax values compiled below
Numbers only; they are read as min.

Here's what some known entries look like.
Molecule	Readout	Result units	Test result
CCCCCCCCCCCCCCCCCC(=O)N[C@@H](Cc1c[nH]cn1)C(=O)N[C@@H](CC(C)C)C(=O)NCC(=O)N[C@@H](CC(C)C)C(=O)N[C@@H](CCC(=O)O)C(=O)N[C@@H](CCC(=O)O)C(=O)N1CCC[C@H]1C(=O)N[C@@H](CCCCN)C(=O)N[C@@H](CCCCN)C(=O)O [SEQ ID NO: 73, C18:0-HLGLEEPKK] (Stearoyl-HLGLEEPKK-OH; C-terminus assumed)	Tmax	min	1.98
CCCCCCCCCCCCCCCC(=O)N[C@@H](Cc1c[nH]cn1)C(=O)N[C@@H](CC(C)C)C(=O)NCC(=O)N[C@@H](CC(C)C)C(=O)N[C@@H](CCC(=O)O)C(=O)N[C@@H](CCC(=O)O)C(=O)N1CCC[C@H]1C(=O)N[C@@H](CCCCN)C(=O)N[C@@H](CCCCN)C(=O)O [SEQ ID NO: 72, C16:0-HLGLEEPKK] (Palmitoyl-HLGLEEPKK-OH; C-terminus assumed)	Tmax	min	1.98

Next up:
# Tmax (molecule: CC(C)C[C@@H]1NC(=O)CNC(=O)[C@H](CC(C)C)NC(=O)[C@H](Cc2c[nH]cn2)NC(=O)[C@H](CCCCN)NC(=O)[C@H](CCCCN)NC(=O)[C@@H]2CCCN2C(=O)[C@H](CCC(=O)O)NC(=O)[C@H](CCC(=O)O)NC1=O [SEQ ID NO: 77, Cyclic(HLGLEEPKK)] (cyclo(EEPKKHLGL)) ) is 1.98

----------
Assay: Stability of HBD1 fragments in human plasma
Format: in vitro ADME
Details: human, human K2EDTA plasma; spiked at 1 μg/mL; 37° C.; 24 hours; read-out: Remaining parent peptide in human plasma 24 hours post spike
Residues, ends and D or L forms follow the SMILES beside them.
Readout: remaining at 24 h, 1 μg/mL (%)
Respond numerically; units are % and should not be typed.

molecule CC(C)C[C@@H]1NC(=O)CNC(=O)[C@H](CC(C)C)NC(=O)[C@H](Cc2c[nH]cn2)NC(=O)[C@H](CCCCN)NC(=O)[C@H](CCCCN)NC(=O)[C@@H]2CCCN2C(=O)[C@H](CCC(=O)O)NC(=O)[C@H](CCC(=O)O)NC1=O [compound 77] (cyclo(EEPKKHLGL)) , remaining at 24 h, 1 μg/mL observed: 98

----------
Assay: Stability of HBD1 fragments in human plasma
Assay type: in vitro ADME
Settings: human, human K2EDTA plasma; spiked at 1 μg/mL; 37° C.; 24 hours; read-out: Remaining parent peptide in human plasma 24 hours post spike
Residues, ends and D or L forms follow the SMILES beside them. *: point of attachment. Stearoyl = CCCCCCCCCCCCCCCCCC(=O)*; Palmitoyl = CCCCCCCCCCCCCCCC(=O)*
Readout: remaining at 24 h, 1 μg/mL (%)
Please state the figure in %; there is no need to write the unit.

Query CCCCCCCCCCCCCCCCCC(=O)N[C@@H](Cc1c[nH]cn1)C(=O)N[C@@H](CC(C)C)C(=O)NCC(=O)N[C@@H](CC(C)C)C(=O)N[C@@H](CCC(=O)O)C(=O)N[C@@H](CCC(=O)O)C(=O)N1CCC[C@H]1C(=O)N[C@@H](CCCCN)C(=O)N[C@@H](CCCCN)C(=O)O [compound 73] (Stearoyl-HLGLEEPKK-OH) yields remaining at 24 h, 1 μg/mL of 89

CCCCCCCCCCCCCCCC(=O)N[C@@H](Cc1c[nH]cn1)C(=O)N[C@@H](CC(C)C)C(=O)NCC(=O)N[C@@H](CC(C)C)C(=O)N[C@@H](CCC(=O)O)C(=O)N[C@@H](CCC(=O)O)C(=O)N1CCC[C@H]1C(=O)N[C@@H](CCCCN)C(=O)N[C@@H](CCCCN)C(=O)O [compound 72] (Palmitoyl-HLGLEEPKK-OH) has a reported remaining at 24 h, 1 μg/mL of 94

The reported remaining at 24 h, 1 μg/mL of the compound CCCCCCCCCCCCCCCC(=O)N[C@@H](CCCCN)C(=O)N[C@@H](Cc1c[nH]cn1)C(=O)N[C@@H](Cc1c[nH]cn1)C(=O)N[C@@H](CC(C)C)C(=O)NCC(=O)N[C@@H](CC(C)C)C(=O)N[C@@H](CCC(=O)O)C(=O)N[C@@H](CCC(=O)O)C(=O)N1CCC[C@H]1C(=O)N[C@@H](CCCCN)C(=O)N[C@@H](CCCCN)C(=O)N[C@@H](CC(C)C)C(=O)N[C@@H](CCCNC(=N)N)C(=O)O [compound 78] (Palmitoyl-KHHLGLEEPKKLR-OH) was 58
